- tgt: PKR K410E (Homo sapiens, UniProt P30613, K410E)
- Sequence (P30613 whole entry K410E): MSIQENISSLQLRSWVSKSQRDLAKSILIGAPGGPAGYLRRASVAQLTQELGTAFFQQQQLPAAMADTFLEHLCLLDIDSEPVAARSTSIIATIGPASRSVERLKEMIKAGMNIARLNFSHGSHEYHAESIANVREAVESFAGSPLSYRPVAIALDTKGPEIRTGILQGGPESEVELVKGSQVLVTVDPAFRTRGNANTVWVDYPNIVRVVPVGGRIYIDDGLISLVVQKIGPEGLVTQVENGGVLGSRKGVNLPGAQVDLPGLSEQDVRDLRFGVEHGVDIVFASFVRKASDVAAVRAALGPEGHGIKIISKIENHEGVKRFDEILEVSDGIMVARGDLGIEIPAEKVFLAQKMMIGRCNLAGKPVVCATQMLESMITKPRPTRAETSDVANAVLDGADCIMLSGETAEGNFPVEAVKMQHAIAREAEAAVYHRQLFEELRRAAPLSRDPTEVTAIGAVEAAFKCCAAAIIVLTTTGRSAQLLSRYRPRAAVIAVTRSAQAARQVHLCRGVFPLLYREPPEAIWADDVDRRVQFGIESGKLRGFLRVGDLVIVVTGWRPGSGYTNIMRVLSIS
- test_protocol: PKR mutant assay (AC50), PKR K410E
- Format: biochemical
- run_conditions: PKR K410E mutant enzyme

{"columns": ["record_smiles", "AC50"],
 "data": [
  ["Cn1cc(Cn2ncc3c4sc(Cc5cc[nH]n5)nc4n(C)c3c2=O)nn1", "< 300 nM"],
  ["Cn1c2nc(Cc3csc(CO)n3)sc2c2cnn(Cc3cccc(N)n3)c(=O)c21", "< 300 nM"],
  ["Cn1ccc(Cn2ncc3c4sc(Cc5n[nH]cc5F)nc4n(C)c3c2=O)n1", "< 300 nM"],
  ["Cn1c2nc(Cc3c[nH]cn3)sc2c2cnn(Cc3ncsc3C(F)(F)F)c(=O)c21", "> 800 nM"],
  ["Cn1c2nc(Cc3cc[nH]n3)sc2c2cnn(Cc3cnc(C(N)=O)o3)c(=O)c21", "301 to 800 nM"]
]}
